target of assay: Gal(b1-3)GlcNAc(b1-3)Gal(b1-4)GlcNAc(b1-3)Gal(b1-4)GlcNAc(b1-2)[Gal(b1-3)GlcNAc(b1-3)Gal(b1-4)GlcNAc(b1-3)Gal(b1-4)GlcNAc(b1-6)]Man(a1-6)[Gal(b1-3)GlcNAc(b1-3)Gal(b1-4)GlcNAc(b1-3)Gal(b1-4)GlcNAc(b1-2)Man(a1-3)]Man(b1-4)GlcNAc(b1-4)[Fuc(a1-6)]GlcNAc
test method notes: glycan array binding signal (z-score within array); higher = stronger binding
assay context: glycan notation: IUPAC condensed, linker removed
This excerpt belongs to a sample that is enriched for the strongest signals.

binder | glycan array binding signal (z-score)
OS9 (Arabidopsis thaliana) (protein) MRGSHHHHHHGMASMTGGQQMGRDLYDDDDKSRLQIFPAHLVGTFSRNNREPKYKIEFLPEDSPFHPGDNLESMVMLDKHGNRFLCYLPKEEKATSGWTSSQQNISTVMMETQQLVKLKTPDELLQPLSEKCLFRQEGWWSYEFCHQKYVRQLHVEDENKIVQEFFLGTFDPEATAAFNQTVSDASTDASQRYHSHVYTNGTTCDLTGSPREVEVRFVCAETRAMVTSITELSTCKYALTVQCPTLCKHPLFQLEKPVSHTIHCNAIPVEEDATRNKEEQAVDESPKMIADS | 2.88
rCNL (Clitocybe nebularis), B2ZRS9 (protein) SITPGTYNITNVAYTNRLIDLTGSNPAENTLIIGHHLNKTPSGYGNQQWTLVQLPHTTIYTMQAVNPQSYVRVRDDNLVDGAALVGSQQPTPVSIESAGNSGQFRIKIPNLGLALTLPSDANSTPIVLGEVDETSTNQLWAFESVSAV | -0.203
DC-Sign-R (Homo sapiens), Q9H2X3 (protein) MSDSKEPRVQQLGLLEEDPTTSGIRLFPRDFQFQQIHGHKSSTGCLGHGALVLQLLSFMLLAGVLVAILVQVSKVPSSLSQEQSEQDAIYQNLTQLKAAVGELSEKSKLQEIYQELTQLKAAVGELPEKSKLQEIYQELTRLKAAVGELPEKSKLQEIYQELTRLKAAVGELPEKSKLQEIYQELTRLKAAVGELPEKSKLQEIYQELTELKAAVGELPEKSKLQEIYQELTQLKAAVGELPDQSKQQQIYQELTDLKTAFERLCRHCPKDWTFFQGNCYFMSNSQRNWHDSVTACQEVRAQLVVIKTAEEQNFLQLQTSRSNRFSWMGLSDLNQEGTWQWVDGSPLSPSFQRYWNSGEPNNSGNEDCAEFSGSGWNDNRCDVDNYWICKKPAACFRDE | 2.5
HPA (Helix pomatia), Q2F1K8 (protein) MQAFYSGLLLLCVVAFAAAQRVQSGKIDCGNDAGWAKVPSDDPGRDNTRELAKNITFASPYCRPPVVLLSITQLDVEQSQNLRVIARLYSVSPTGFKASCYTWHNTKVYSMSISWISIENY | 0.092
RobpsCRA (Robinia pseudoacacia) (protein) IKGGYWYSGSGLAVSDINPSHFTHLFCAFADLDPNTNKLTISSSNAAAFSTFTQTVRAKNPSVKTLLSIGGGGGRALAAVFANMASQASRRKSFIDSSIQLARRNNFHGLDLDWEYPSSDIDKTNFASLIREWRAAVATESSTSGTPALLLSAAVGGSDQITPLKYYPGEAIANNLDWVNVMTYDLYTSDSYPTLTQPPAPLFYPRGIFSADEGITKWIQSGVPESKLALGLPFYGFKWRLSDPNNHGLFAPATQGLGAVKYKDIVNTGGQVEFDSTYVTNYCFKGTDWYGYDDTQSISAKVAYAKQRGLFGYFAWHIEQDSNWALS | 0.989
